Assay: in vitro
Details: human
QUANTITY_MEASURED: viability at 5 µM (%)
Field format: number, assumed %, no unit text.

Look over these answered cases.
| COMPOUND | UNIT_ANNOTATION | viability at 5 µM |
| --- | --- | --- |
| CCCCC1=Cc2cc3c(cc2C1N1CCN(C)CC1)OCO3 (centres unmarked) [RFM-005-200-6] | % | 145 |
| OC1CCN(CCCN2c3ccccc3Sc3ccc(C(F)(F)F)cc32)C1 (centres unmarked) [RFM-010-589-5] | % | 146 |

Lab book: viability at 5 µM of CCCN(CCC)C(=O)C(Cc1ccc(OCCCN2CCN(C)CC2)cc1)NC(=O)c1ccc(Cl)cc1 (centres unmarked) [RFM-009-534-1] noted as 135

Lab book: viability at 5 µM of OCCN1CCN(CCC=C2c3ccccc3Sc3ccc(C(F)(F)F)cc32)CC1 [RFM-000-079-3] noted as 145

Lab book: viability at 5 µM of CC(CN(C)C)CN1c2ccccc2CCc2ccccc21 (centres unmarked) [RFM-008-630-6] noted as 145

Lab book: viability at 5 µM of CC(=O)[C@]1(O)Cc2c(O)c3c(c(O)c2[C@@H](O[C@H]2C[C@H](N)[C@H](O)[C@H](C)O2)C1)C(=O)c1ccccc1C3=O [RFM-000-458-0] noted as 103

Lab book: viability at 5 µM of OCCN1CCN(CCCC2c3ccc(F)cc3Sc3ccc(C(F)(F)F)cc32)CC1 (centres unmarked) [RFM-010-066-3] noted as 148

Lab book: viability at 5 µM of CCCCc1oc2ccc(C(=O)OC(C)C)cc2c1C(=O)c1ccc(CCCN(CCCC)CCCC)cc1 [RFM-009-487-1] noted as 122

###

Test system: SARS-CoV-2
Assay: microbe, parasite or virus in culture
Details: Severe acute respiratory syndrome coronavirus 2, Calu-3, 48 h
Entries annotated with measured IC50

Lab book: IC50 of "CN1CC[C@H](c2c(O)cc(O)c3c(=O)cc(-c4ccccc4Cl)oc23)[C@H](O)C1" noted as 210 nM

Lab book: IC50 of "CC1(C)CC[C@]2(NC(=O)C(C)(F)F)CC[C@]3(C)[C@H](C(=O)C=C4[C@@]5(C)C=C(C#N)C(=O)C(C)(C)[C@@H]5CC[C@]43C)[C@@H]2C1" noted as 140 nM

Lab book: IC50 of "CC/C(=C(/C#N)c1ccc(OCCN(CC)CC)cc1)c1ccc(Cl)cc1" noted as 9350 nM

Lab book: IC50 of "CCC(CC)COC(=O)[C@H](C)N[P@](=O)(OC[C@H]1O[C@@](C#N)(c2ccc3c(N)ncnn23)[C@H](O)[C@@H]1O)Oc1ccccc1" noted as 180 nM

Lab book: IC50 of CC1(C)CC[C@]2(C(=O)O)CC[C@]3(C)[C@H](C(=O)C=C4[C@@]5(C)C=C(C#N)C(=O)C(C)(C)[C@@H]5CC[C@]43C)[C@@H]2C1 [Bardoxolone, reference compound] noted as 1890 nM

###

Assay: in vitro
Details: Anti-SARS-CoV-2 screening on Calu-3 cells: viability [% of control], Calu-3 cells
Entries annotated with measured viability
Field format: number, assumed %, no unit text.

| MOLECULE | viability / % |
| --- | --- |
| CC(C)(Cc1ccc2ccccc2c1)NC[C@@H](O)COc1cccc(Cl)c1C#N [SB 262470] | 106 |
| Oc1ccc(Nc2ccnc3cc(Cl)ccc23)cc1CN1CCCC1 [RFM-010-841-8] | 109 |
| CCCN(CCC)C(=O)C(Cc1ccc(OCCCN2CCN(C)CC2)cc1)NC(=O)c1cccc(Cl)c1 (stereo not drawn) [RFM-012-155-1] | 104 |
| CN1CCC(CNc2ccc3ncc(-c4cccc(OC(F)(F)F)c4)n3n2)CC1 [SGI-1776] | 94.5 |
| CNC1CC(c2ccc(Cl)c(Cl)c2)c2ccccc21 (stereo not drawn) [Indatraline] | 88.1 |
| Cc1ccc([C@@H](CCNCC2CCCCC2)[C@@H]2CCOC(C)(C)C2)cc1F [RFM-013-052-9] | 102 |
| CC(C)(C)c1cnc(CSc2cnc(NC(=O)C3CCNCC3)s2)o1 [SNS-032] | 39.8 |
| OCCN1CCN(CCCN2c3ccccc3Sc3ccc(C(F)(F)F)cc32)CC1 [RFM-001-668-2] | 99 |

Pending molecule:
Lab book: viability of Cc1nc2c(N3CCNCC3)cccc2n1S(=O)(=O)c1ccccc1 [PF-5212377] noted as 104
